Origin of measurements: ChEMBL document CHEMBL4813965

Overview of recorded solubility for various compounds
Test Details: Solubility of the compound at pH 7.0
Type: physicochemical
Run Conditions: buffer
Observable: solubility (µg/mL)

- Molecule Smiles: "C[C@@H]1CCCN(c2nc(-c3cc(-c4ccon4)n(Cc4ccccc4F)n3)ncc2F)[C@@H]1C(=O)O"
  Unit Symbol: "µg/mL"
  Reading: 21
- Molecule Smiles: "Oc1nc(-c2cc(-c3ccon3)n(Cc3ccccc3F)n2)ncc1F"
  Unit Symbol: "µg/mL"
  Reading: 3

###

Overview of recorded Papp A→B for various compounds
Test Details: Apparent permeability across apical to basolateral side of dog MDR1-MDCK2 cells
Format: ADME, cell-based, Canis lupus familiaris, MDCK-II
Run Conditions: MDCK-MDR1

- Molecule Smiles: "C[C@@H]1CCCN(c2nc(-c3cc(-c4ccon4)n(Cc4ccccc4F)n3)ncc2F)[C@@H]1C(=O)O"
  Papp A→B: "40 ×10⁻⁶ cm/s"
- Molecule Smiles: "Oc1nc(-c2cc(-c3ccon3)n(Cc3ccccc3F)n2)ncc1F"
  Papp A→B: "24 ×10⁻⁶ cm/s"

###

Test Details: AUC in rat at 1 mg/kg, po
Type: ADME, organism-based
Parameters: dose 1 mg/kg
Run Conditions: in vivo

- Molecule Smiles: "Oc1nc(-c2cc(-c3ccon3)n(Cc3ccccc3F)n2)ncc1F"
  Unit Symbol: "ng·h/mL"
  AUC: 25000
- Molecule Smiles: "C[C@@H]1CCCN(c2nc(-c3cc(-c4ccon4)n(Cc4ccccc4F)n3)ncc2F)[C@@H]1C(=O)O"
  Unit Symbol: "ng·h/mL"
  AUC: 3700

###

Test Details: Oral bioavailability in rat at 1 mg/kg
Assay type: ADME, organism-based
Run Conditions: in vivo

- Molecule Smiles: "C[C@@H]1CCCN(c2nc(-c3cc(-c4ccon4)n(Cc4ccccc4F)n3)ncc2F)[C@@H]1C(=O)O"
  bioavailability: "> 100%"
